Entry source: paper PMC4336329

Assay Target: human ether-à-go-go-related gene (hERG) potassium channel (human, UniProt Q12809);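 also: peak tail current of the secondary pulse compared with the same well before compound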
Sequence (Q12809 whole entry, looked up): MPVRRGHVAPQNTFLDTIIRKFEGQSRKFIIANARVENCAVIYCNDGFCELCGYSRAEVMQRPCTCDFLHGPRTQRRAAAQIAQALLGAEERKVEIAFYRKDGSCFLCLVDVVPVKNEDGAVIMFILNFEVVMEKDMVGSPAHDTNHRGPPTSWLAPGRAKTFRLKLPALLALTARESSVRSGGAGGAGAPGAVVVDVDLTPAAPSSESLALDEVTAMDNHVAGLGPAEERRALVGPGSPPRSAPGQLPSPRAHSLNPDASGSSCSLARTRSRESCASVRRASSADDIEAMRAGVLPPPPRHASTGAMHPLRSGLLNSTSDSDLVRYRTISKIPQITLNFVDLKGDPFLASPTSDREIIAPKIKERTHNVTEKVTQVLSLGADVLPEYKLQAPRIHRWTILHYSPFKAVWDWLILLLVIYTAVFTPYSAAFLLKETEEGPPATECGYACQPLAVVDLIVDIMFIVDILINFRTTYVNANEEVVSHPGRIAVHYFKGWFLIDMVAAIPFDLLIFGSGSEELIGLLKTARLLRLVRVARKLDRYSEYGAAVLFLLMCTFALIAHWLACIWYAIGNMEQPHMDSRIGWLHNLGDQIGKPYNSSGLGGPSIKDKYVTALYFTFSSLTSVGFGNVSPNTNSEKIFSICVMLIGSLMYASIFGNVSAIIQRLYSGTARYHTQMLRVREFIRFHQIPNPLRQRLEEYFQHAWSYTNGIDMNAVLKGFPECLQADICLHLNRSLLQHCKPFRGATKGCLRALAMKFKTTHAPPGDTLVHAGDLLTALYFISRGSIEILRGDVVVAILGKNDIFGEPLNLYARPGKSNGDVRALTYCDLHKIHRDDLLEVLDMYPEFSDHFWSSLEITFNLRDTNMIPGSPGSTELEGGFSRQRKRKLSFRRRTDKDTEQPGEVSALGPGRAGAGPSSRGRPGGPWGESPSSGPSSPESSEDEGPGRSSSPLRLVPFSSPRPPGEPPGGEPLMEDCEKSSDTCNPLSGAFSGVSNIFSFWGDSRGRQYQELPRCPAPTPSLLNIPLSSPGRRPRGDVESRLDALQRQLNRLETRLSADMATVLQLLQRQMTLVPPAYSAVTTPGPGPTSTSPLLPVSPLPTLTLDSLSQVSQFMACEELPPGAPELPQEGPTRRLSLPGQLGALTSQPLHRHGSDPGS
Assay Notes: primary screen, population patch clamp on CHO cells stably expressing hERG; higher = less effect of the substance
Hit rate of the full screen: of about 310,000 compounds, about 14,000 (4.5%) showed an effect of 50% or more. The effect is printed as a negative number. Only a selection was taken, and strong results are over-represented in it overall.
List of hERG current change (%, negative = inhibition) at 10uM values.
Quantity Measured: hERG current change (%, negative = inhibition) at 10uM (%)

Compound: COc1cccc(CCNC(=O)CC2C(=O)NCCN2Cc2ccc(C)o2)c1 (centres unmarked)
Recorded Value: 15.7
--
Compound: COc1ccc(C(=O)C(CCCCC(CN(C)C)C(=O)c2ccc(OC)cc2)CN(C)C)cc1.Cl (centres unmarked)
Recorded Value: -2.07
--
Compound: O=C(NC1CCCC1)C1CCCN(S(=O)(=O)c2cnc[nH]2)C1 (centres unmarked)
Recorded Value: 15.3
--
Compound: CCCn1c(SCC(=O)N2CCN(C(=O)c3ccco3)CC2)nc2ccccc2c1=O
Recorded Value: -82.8
--
Compound: O=C(CSc1nc2ccccc2n1CC(=O)N1CCCC1)N1CCN(C(=O)c2ccco2)CC1
Recorded Value: -0.921
--
Compound: O=C(CCc1ccccc1)NNC(=O)C1CCCCC1
Recorded Value: -2.12
--
Compound: COc1ccc(C(CNC(=O)CSc2ccccc2F)N2CCOCC2)cc1 (centres unmarked)
Recorded Value: 10.7
--
Compound: CC(=O)NCCC(=O)Nc1cc(S(=O)(=O)N2CCOCC2)ccc1Oc1ccc(F)cc1
Recorded Value: -30.5
--
Compound: CCOc1ccc(NC(=O)CSc2nncn2C)cc1
Recorded Value: 18.7
--
Compound: COC(=O)C1=C(C)N(Cc2ccc(OC)c(OC)c2)C(=O)C1
Recorded Value: 10.7
--
Compound: COc1ccc2c(c1OC)C(=O)OC2Nc1nc(-c2ccc(-c3ccccc3)cc2)cs1 (centres unmarked)
Recorded Value: 17
--
Compound: CCn1c(SCC(=O)N2CCCC2)nc2ccccc2c1=O
Recorded Value: -23
--
Compound: CC(=O)NCCC(=O)Nc1cc(S(=O)(=O)N2CCCCC2)ccc1N1CCCCC1
Recorded Value: -5.37
--
Compound: CC1CCN(C(C)C(=O)Nc2ccc(S(=O)(=O)N3CCCC3)cc2)CC1 (centres unmarked)
Recorded Value: -6.3
--
Compound: O=C(O)C(=O)O.O=C(c1ccc(F)cc1)N1CCN(C2CC3CCC2C3)CC1 (centres unmarked)
Recorded Value: -2.85
--
Compound: COC(=O)CNc1cc(S(=O)(=O)N2CCCCC2)ccc1Oc1cccc(C)c1
Recorded Value: -30.7
--
Compound: CC(C)Cn1c(SCC(=O)N2CCCCC2)nc2ccccc2c1=O
Recorded Value: -24.7
--
Compound: CC(=O)NCCC(=O)Nc1cc(S(=O)(=O)N2CCCCC2)ccc1Oc1cccc(C)c1
Recorded Value: -68
--
Compound: N#Cc1nc(-c2cccs2)oc1NCCc1ccccc1
Recorded Value: 3.08
--
Compound: COc1ccc(CC(=O)NNS(=O)(=O)c2ccc(F)cc2)cc1OC
Recorded Value: 0.969
